So I've got a bunch of compounds here, and I need their pIC50 values.
Target: full-length recombinant human NEK7 (Homo sapiens, UniProt Q8TDX7)
Construct: full-length recombinant human NEK7; GST (N); purchased SignalChem N09-10G; host or cells: Sf9 insect cells (baculovirus)
Sequence (Q8TDX7 whole entry): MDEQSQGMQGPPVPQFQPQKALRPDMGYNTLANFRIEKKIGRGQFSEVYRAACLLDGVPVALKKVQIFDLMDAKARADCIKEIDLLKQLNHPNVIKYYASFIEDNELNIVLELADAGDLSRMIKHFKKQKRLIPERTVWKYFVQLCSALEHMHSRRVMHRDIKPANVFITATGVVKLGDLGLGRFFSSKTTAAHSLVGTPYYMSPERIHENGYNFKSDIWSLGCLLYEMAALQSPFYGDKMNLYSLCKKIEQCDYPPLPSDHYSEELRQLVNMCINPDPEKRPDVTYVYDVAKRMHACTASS
Assay: NEK7 enzymatic assay ([33P]-ATP, casein substrate)
Format: biochemical
Details: Table 2d; recombinant human NEK7, casein substrate
pIC50: −log10 of the molar value.

Q: # get_value(readout= pIC50, system= full-length recombinant human NEK7 (Homo sapiens, UniProt Q8TDX7)) for `COc1cc(CN2CCN(C)CC2)ccc1NC(=O)Nc1ccc(-c2cn(C3CC3)c3ncnc(N)c23)cc1F`
Result: < 5.82

Q: # get_value(readout= pIC50, system= full-length recombinant human NEK7 (Homo sapiens, UniProt Q8TDX7)) for `CN1CCC(=Cc2ccc(NC(=O)Nc3ccc(-c4cn(C5CC5)c5ncnc(N)c45)cc3F)cc2C(F)(F)F)CC1`
Result: 5.82 to 6.30

Q: # get_value(readout= pIC50, system= full-length recombinant human NEK7 (Homo sapiens, UniProt Q8TDX7)) for `Nc1ncnc2c1c(-c1ccc(NC(=O)Nc3ccc(CN4CCN(C5CC5)CC4)c(C(F)(F)F)c3)c(F)c1)cn2C1CC1`
Result: 6.30 to 6.52
